Cited source: ChEMBL document CHEMBL1154208

tested on: Ileum; assay: Antispasmodic activity in mouse distal ileum assessed as inhibition of acetylcholine-induced contractions at 100 ug/ml after 20 mins; assay type: functional
Active and inactive are the calls of the source. No cut-off for these calls is given here.
Classes used: active, inactive

[
  {
    "structure smiles": "C[C@@H]1C[C@H]2OC(=O)[C@@]3(C)CCC[C@@](C)([C@@H]23)[C@@]12CC[C@]1(CO[C@@H](O)C1)O2",
    "discrete label": "active"
  },
  {
    "structure smiles": "C[C@@H]1C[C@H]2OC(=O)[C@@]3(C)CCC[C@@](C)([C@@H]23)[C@@]12CC[C@@]1(CO[C@H](O)C1)O2",
    "discrete label": "inactive"
  },
  {
    "structure smiles": "C[C@@H]1C[C@H]2OC(=O)[C@@]3(C)CCC[C@@](C)([C@@H]23)[C@@]1(O)CCCC(=O)O",
    "discrete label": "active"
  },
  {
    "structure smiles": "C[C@@H]1C[C@H]2OC(=O)[C@@]3(C)CCC[C@@](C)([C@@H]23)[C@@]12CC[C@@]1(COC(=O)C1)O2",
    "discrete label": "active"
  },
  {
    "structure smiles": "C[C@@H]1C[C@@H](O)[C@H]2C(C)(C)CCC[C@]2(C)[C@@]1(O)CCC1=CC(=O)OC1",
    "discrete label": "inactive"
  }
]

* * *

system: Ileum; experiment: Antispasmodic activity in mouse distal ileum assessed as inhibition of acetylcholine-induced contractions at 100 ug/ml after 20 mins; format: functional
The source made the active and inactive calls. The rule behind the calls is not given here.
outcome measure: inhibition

[
  {
    "structure smiles": "C[C@@H]1C[C@H]2OC(=O)[C@@]3(C)CCC[C@@](C)([C@@H]23)[C@@]12CC[C@@]1(CO[C@@H](O)C1)O2",
    "reading": "inactive"
  },
  {
    "structure smiles": "C[C@@H]1C[C@H]2OC(=O)[C@@]3(C)CCC[C@@](C)([C@@H]23)[C@@]1(O)CCC1=CC(=O)OC1",
    "reading": "inactive"
  },
  {
    "structure smiles": "C[C@@H]1C[C@H]2OC(=O)[C@@]3(C)CCC[C@@](C)([C@@H]23)[C@@]12CC[C@]1(CO[C@H](O)C1)O2",
    "reading": "Active"
  },
  {
    "structure smiles": "C[C@@H]1C[C@H]2OC(=O)[C@@]3(C)CCC[C@@](C)([C@@H]23)[C@@]12CC[C@]1(COC(=O)C1)O2",
    "reading": "Active"
  }
]
